# Read-out: Macrophage colony-stimulating factor (MCSF), CSF1 (gene 1435)
# TEST_NAME: BSK_hDFCGF_MCSF: BioMAP Diversity Plus: hDFCGF Assay for Macrophage colony-stimulating factor (MCSF) Biomarker Activity (AID 2283060)
# EXPERIMENTAL_SETUP: primary human foreskin fibroblasts; actives raise or lower the signal
Calls of active or inactive are those of the source. How the source made its calls: active means hit-call score of the fitted dose curve at least 0.9, where 1 is the maximum; inactive means score below 0.9.
The reply should be one of these categories: active, inactive

Field: example entries. Status: answers known.
{"MOLECULE": "COP(=S)(OC)Oc1ccc(SC)c(C)c1", "CLASS_LABEL": "inactive"}
{"MOLECULE": "O=S1OCC2C(CO1)C1(Cl)C(Cl)=C(Cl)C2(Cl)C1(Cl)Cl (stereo not given)", "CLASS_LABEL": "active"}
{"MOLECULE": "COc1nn(CSP(=S)(OC)OC)c(=O)s1", "CLASS_LABEL": "inactive"}
{"MOLECULE": "CCOC1Oc2ccc(OS(C)(=O)=O)cc2C1(C)C (stereo not given)", "CLASS_LABEL": "inactive"}
{"MOLECULE": "N#Cc1c(Cl)c(Cl)c(Cl)c(C#N)c1Cl", "CLASS_LABEL": "active"}

[Q] For this molecule, state the assay outcome: CCOc1nc(NC)nc(NC(=O)NS(=O)(=O)c2ccccc2C(=O)OC)n1
[A] inactive

[Q] How about this molecule: CC(C)(C)C(O)C(Oc1ccc(Cl)cc1)n1cncn1 (stereo not given)
[A] inactive

[Q] How about this molecule: CN1CSC(=S)N(C)C1
[A] active

[Q] How about this molecule: O=C(O)COc1ccc(Cl)cc1Cl
[A] inactive

[Q] How about this molecule: CNC(=O)Oc1ccccc1OC(C)C
[A] inactive

[Q] How about this molecule: CC(C)N(C(=O)COc1nnc(C(F)(F)F)s1)c1ccc(F)cc1
[A] active

[Q] How about this molecule: CCC(C)(C)C(=O)OC1=C(c2ccc(Cl)cc2Cl)C(=O)OC12CCCCC2
[A] active

###

# Read-out: C-C motif chemokine 2 (Homo sapiens)
# TEST_NAME: BSK_KF3CT_MCP1: BioMAP Diversity Plus: KF3CT Assay for Monocyte Chemoattractant Protein 1 (MCP1/CCL2) Biomarker Activity (AID 2283073)
# EXPERIMENTAL_SETUP: primary human keratinocytes with fibroblasts; actives raise or lower the signal
Calls of active or inactive are those of the source. How the source made its calls: active means hit-call score of the fitted dose curve at least 0.9, where 1 is the maximum; inactive means score below 0.9.
The reply should be one of these categories: T = active, F = inactive

Field: example entries. Status: answers known.
{"SMILES_RECORD": "O=C(Nc1ccccc1)Nc1cnns1", "CLASS_LABEL": "F"}
{"SMILES_RECORD": "OCCOc1ccccc1", "CLASS_LABEL": "F"}
{"SMILES_RECORD": "CNC(=O)/C=C(\\C)OP(=O)(OC)OC", "CLASS_LABEL": "F"}
{"SMILES_RECORD": "N#Cc1c(Cl)c(Cl)c(Cl)c(C#N)c1Cl", "CLASS_LABEL": "T"}
{"SMILES_RECORD": "COP(=S)(OC)Oc1ccc([N+](=O)[O-])cc1", "CLASS_LABEL": "F"}
{"SMILES_RECORD": "O=[N+]([O-])c1c(Cl)c(Cl)c(Cl)c(Cl)c1Cl", "CLASS_LABEL": "F"}
{"SMILES_RECORD": "CN1CSC(=S)N(C)C1", "CLASS_LABEL": "F"}
{"SMILES_RECORD": "CCC(C)(C)C(=O)OC1=C(c2ccc(Cl)cc2Cl)C(=O)OC12CCCCC2", "CLASS_LABEL": "T"}

Now look at this entry.
[Q] For this compound, state the assay outcome: CCOCN(C(=O)CCl)c1c(C)cccc1CC
[A] F
